# Tgt: Gal3S(b1-3)GalNAc
# Test name: glycan array binding signal (z-score within array); higher = stronger binding
# Experimental setup: glycan notation: IUPAC condensed, linker removed
The entries come from a sample that favours the strongest signals as a whole.

>  <Binder>
SP15308A-bot-339-19-339 (Bacteroides ovatus) (protein) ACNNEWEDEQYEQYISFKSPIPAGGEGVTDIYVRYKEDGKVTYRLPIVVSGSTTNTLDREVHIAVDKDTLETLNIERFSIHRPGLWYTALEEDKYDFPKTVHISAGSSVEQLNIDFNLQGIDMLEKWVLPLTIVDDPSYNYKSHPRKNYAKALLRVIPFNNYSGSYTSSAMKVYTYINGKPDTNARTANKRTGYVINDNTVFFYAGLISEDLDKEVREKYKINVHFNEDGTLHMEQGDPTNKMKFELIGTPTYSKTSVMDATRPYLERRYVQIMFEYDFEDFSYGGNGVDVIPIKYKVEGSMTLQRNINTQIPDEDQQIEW

>  <glycan array binding signal (z-score)>
0.97

$$$$
>  <Binder>
XCL (Xerocomus chrysenteron) (protein) MSYSITLRVYQTNRDRGYFSIVEKTVWHFANGGTWSEANGAHTLTQGGSGTSGVLRFLSTKGERITVAVGVHNYKRWCDVVTGLKPDETALVINPQYYNNGGRDYVREKQLAEYSVTSAIGTKVEVVYTVAEGNNLEANVIFS

>  <glycan array binding signal (z-score)>
3.44

$$$$
>  <Binder>
Gal 9 (Canis lupus) (protein) MAFSSSQPPYLSPGVPFSGKIQGGLQDGLKITINGTILYCNGTRFAVNFHSGHSDSDIAFHFNPRFEEGGYVVCNTKQKGSWGSEERKMQMPFQMGNPFELCFMVNSCDFKVTVNGSHFTQYSHRVPFHYVDTLSITGAVQLSYISFQSPGVWQSSSAPITQTVIHTVQTTPGQPFPNPIIPPTAYPTPTYPMPFFTSIPGGLYPSKSIIVSGTVLPGAKRFHINLRSGNDIAFHLNPRFNENTVVRNMQINNSWGSEERSLPRKMPFVQGQSFSVWIMCEGHCFKVAVDGEHLFEYYHRLKNLLAINNMEVAGDVQLTHVQT

>  <glycan array binding signal (z-score)>
5.93

$$$$
>  <Binder>
Erv41-EDTA (Saccharomyces cerevisiae), Q04651 (protein) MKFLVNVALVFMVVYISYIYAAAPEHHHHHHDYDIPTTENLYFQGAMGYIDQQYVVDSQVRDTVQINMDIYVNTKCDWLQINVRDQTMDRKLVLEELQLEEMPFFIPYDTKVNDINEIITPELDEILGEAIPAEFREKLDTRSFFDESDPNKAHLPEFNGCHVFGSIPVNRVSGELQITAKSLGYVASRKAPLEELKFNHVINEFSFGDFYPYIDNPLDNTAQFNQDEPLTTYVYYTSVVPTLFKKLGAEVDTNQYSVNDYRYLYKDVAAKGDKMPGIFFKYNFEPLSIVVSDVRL

>  <glycan array binding signal (z-score)>
0.809

$$$$
>  <Binder>
pTFF2 (Sus scrofa), P01359 (protein) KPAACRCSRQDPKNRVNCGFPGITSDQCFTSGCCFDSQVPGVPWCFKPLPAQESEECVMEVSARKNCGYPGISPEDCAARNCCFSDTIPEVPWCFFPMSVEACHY

>  <glycan array binding signal (z-score)>
0.185

$$$$
>  <Binder>
LTL (Lotus tetragonolobus), P19664 (protein) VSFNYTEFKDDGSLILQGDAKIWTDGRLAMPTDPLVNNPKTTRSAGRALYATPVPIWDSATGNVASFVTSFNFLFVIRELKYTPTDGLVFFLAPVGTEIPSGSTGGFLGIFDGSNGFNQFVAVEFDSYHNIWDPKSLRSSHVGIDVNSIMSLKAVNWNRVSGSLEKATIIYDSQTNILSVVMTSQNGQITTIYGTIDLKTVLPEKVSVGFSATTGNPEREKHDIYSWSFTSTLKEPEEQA

>  <glycan array binding signal (z-score)>
-0.003

$$$$
>  <Binder>
M6PR (Bos taurus), P11456 (protein) MMSPLHSSWRTGLLLLLLFSVAVRESWQTEEKTCDLVGEKGKESEKELALLKRLTPLFNKSFESTVGQSPDMYSYVFRVCREAGNHSSGAGLVQINKSNGKETVVGRFNETQIFNGSNWIMLIYKGGDEYDNHCGREQRRAVVMISCNRHTLADNFN

>  <glycan array binding signal (z-score)>
-0.095

$$$$
>  <Binder>
PFL (Pseudomonas fluorescens) (protein) MSKYAVANQWGGSSAPWHPGGTWVLGARDNQNVVAIEIKSGDGGKSFTGTMTYAGEGPIGFKAQRTGQNQYNVENQWGGNDAPWHPGGKWVIGGRDNQNVIALSVTSSDGGKNLSGTNTYANEGPIGFRGQIE

>  <glycan array binding signal (z-score)>
-0.116

$$$$
>  <Binder>
SEX4 (Arabidopsis thaliana), Q944A8 (protein) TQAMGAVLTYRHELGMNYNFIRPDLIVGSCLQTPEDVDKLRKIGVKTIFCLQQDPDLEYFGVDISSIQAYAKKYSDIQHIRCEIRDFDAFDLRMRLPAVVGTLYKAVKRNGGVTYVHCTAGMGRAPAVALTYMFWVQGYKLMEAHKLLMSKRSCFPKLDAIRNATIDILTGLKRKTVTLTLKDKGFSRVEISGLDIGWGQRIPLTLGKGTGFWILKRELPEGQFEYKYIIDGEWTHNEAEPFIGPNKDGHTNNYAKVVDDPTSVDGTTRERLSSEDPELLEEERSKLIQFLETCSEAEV

>  <glycan array binding signal (z-score)>
-0.502

$$$$
>  <Binder>
DC-ASGPR L+GEE (Homo sapiens) (protein) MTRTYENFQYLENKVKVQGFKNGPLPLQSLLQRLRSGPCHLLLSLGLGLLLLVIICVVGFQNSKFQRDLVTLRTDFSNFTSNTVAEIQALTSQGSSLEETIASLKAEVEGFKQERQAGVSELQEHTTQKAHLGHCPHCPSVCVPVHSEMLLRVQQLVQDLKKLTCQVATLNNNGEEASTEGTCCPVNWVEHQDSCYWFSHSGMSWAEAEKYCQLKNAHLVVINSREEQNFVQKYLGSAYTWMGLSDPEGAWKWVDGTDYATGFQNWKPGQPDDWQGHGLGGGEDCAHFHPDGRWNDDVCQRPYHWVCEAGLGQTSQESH

>  <glycan array binding signal (z-score)>
0.442

$$$$
>  <Binder>
S100A12 (Homo sapiens), P80511 (protein) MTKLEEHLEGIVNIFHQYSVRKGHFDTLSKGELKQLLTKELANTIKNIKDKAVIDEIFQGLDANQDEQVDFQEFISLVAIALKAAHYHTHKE

>  <glycan array binding signal (z-score)>
0.207

$$$$
